Recorded measurements of binding of the reference Hepatitis B peptide in presence of competitor (% maximal binding), one per entry
Test system: HLA-DP4
protocol-notes: HLA-DP4 competition binding assay against biotinylated Hepatitis B peptide (membrane preps, ELISA)
Design: species or system human
condition-parameters: equal quantity of non-biotinylated competitor and 10 µg biotinylated HepB 181-193; B16HHDII/cDP4 membrane preps; 4 hrs 37°C; streptavidin ELISA, anti-HLA-DP; Figure 1D

Consider the following illustrative entries.
KRDVTLEAS-cit-ESSKP-cit-AVLKP-cit- [citSeThrePho, Synthetic citrullinated peptide Serine/threonine-protein phosphatase 2A 55 kDa regulatory subunit B gamma isoform 370-391] : 30-35%
MDEIDAIGG-cit-RFSEGTSADREIQ [cit26S-10B, Synthetic citrullinated peptide 26S protease regulatory subunit 10B 246-268] : 30-35%
VFDWIRKERNQYGEVRV-cit-FNTYFFR [citMMP21, Synthetic citrullinated peptide Matrix metalloproteinase-21 337-360] : 40-50%
LEIY-cit-YTSFVPFTIPHSTTR [citCp450, Synthetic citrullinated peptide Cytochrome P450 1A2 373-392] : 40-50%

Exam item: Any idea what binding of the reference Hepatitis B peptide in presence of competitor (% maximal binding) was measured for EPKSSCYNTHEK-cit-IYQSNMLN-cit-YLI [citGRI, Synthetic citrullinated peptide Glutamate receptor ionotropic 316-340] ?
Marked response: 40-50%

Exam item: Any idea what binding of the reference Hepatitis B peptide in presence of competitor (% maximal binding) was measured for ML-cit-CASGAEL-cit-QPPRDVPPDAR [cit5T4, Synthetic citrullinated peptide Trophoblast glycoprotein-like protein 40-61] ?
Marked response: 40-50%

Exam item: Any idea what binding of the reference Hepatitis B peptide in presence of competitor (% maximal binding) was measured for NGQT-cit-EHALLAYTLGVKQLIVGVNK [citELO, Synthetic citrullinated peptide Elongation factor 1-alpha 1 130-154] ?
Marked response: 40-50%
